The values you see were collected from patent EP3212201B1.

Molecular target: KIT (Homo sapiens)
Sequence (P10721 26-976, species assumed): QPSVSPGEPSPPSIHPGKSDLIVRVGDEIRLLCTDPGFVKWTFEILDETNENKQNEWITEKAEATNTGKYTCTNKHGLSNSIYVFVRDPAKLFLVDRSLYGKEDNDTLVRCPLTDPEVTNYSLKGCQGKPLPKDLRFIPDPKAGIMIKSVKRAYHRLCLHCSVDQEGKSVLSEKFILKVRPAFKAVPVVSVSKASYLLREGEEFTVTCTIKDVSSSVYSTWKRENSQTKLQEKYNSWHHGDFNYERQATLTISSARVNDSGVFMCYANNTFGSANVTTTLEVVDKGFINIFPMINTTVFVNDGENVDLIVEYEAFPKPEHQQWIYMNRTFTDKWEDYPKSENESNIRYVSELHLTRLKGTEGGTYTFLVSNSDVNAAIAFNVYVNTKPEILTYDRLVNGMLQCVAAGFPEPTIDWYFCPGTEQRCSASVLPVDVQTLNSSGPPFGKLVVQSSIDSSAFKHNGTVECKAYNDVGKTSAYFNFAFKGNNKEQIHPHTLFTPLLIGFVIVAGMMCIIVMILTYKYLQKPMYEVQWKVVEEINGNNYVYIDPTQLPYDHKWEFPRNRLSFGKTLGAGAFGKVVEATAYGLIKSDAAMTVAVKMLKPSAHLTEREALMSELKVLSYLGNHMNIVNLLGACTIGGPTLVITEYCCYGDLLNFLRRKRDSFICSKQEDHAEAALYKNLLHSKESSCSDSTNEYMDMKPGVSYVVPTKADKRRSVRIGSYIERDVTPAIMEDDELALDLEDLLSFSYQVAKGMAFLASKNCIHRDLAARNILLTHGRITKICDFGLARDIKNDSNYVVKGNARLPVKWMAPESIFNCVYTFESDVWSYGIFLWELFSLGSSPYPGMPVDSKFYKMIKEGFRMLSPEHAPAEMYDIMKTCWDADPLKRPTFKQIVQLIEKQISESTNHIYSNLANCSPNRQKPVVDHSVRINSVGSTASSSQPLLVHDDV
Test: FRET-based coupled-enzyme protein kinase inhibition assay
Format: biochemical
Details: compound at 10 µM, 1% DMSO
Measured inhibition at 10 µM accompanies every entry in the list below.
reported_endpoint: inhibition at 10 µM (%)

[[record]]
compound = "Nc1ncnc2c1ncn2[C@@H]1O[C@H](COC(=O)NCCCc2nc3ccccc3[nH]2)[C@@H](O)[C@H]1O [Compound C1]"
endpoint_unit = "%"
observed_measurement = 10

[[record]]
compound = "N#CCCN1CCN(C(=O)OC[C@H]2O[C@@H](n3cnc4c(N)ncnc43)[C@H](O)[C@@H]2O)CC1 [Compound C70]"
endpoint_unit = "%"
observed_measurement = 12

[[record]]
compound = "Nc1ncnc2c1ncn2[C@@H]1O[C@H](COC(=O)NC[C@H](O)CO)[C@@H](O)[C@H]1O [Compound C8]"
endpoint_unit = "%"
observed_measurement = 28

[[record]]
compound = "Nc1ncnc2c1ncn2[C@@H]1O[C@H](COC(=O)N2CCC[C@H]2CO)[C@@H](O)[C@H]1O [Compound C9]"
endpoint_unit = "%"
observed_measurement = -3

[[record]]
compound = "Nc1ncnc2c1ncn2[C@@H]1O[C@H](COC(=O)NCCN2CCCC2=O)[C@@H](O)[C@H]1O [Compound C22]"
endpoint_unit = "%"
observed_measurement = 3

[[record]]
compound = "Nc1ncnc2c1ncn2[C@@H]1O[C@H](COC(=O)N2CCS(=O)(=O)CC2)[C@@H](O)[C@H]1O [Compound C100]"
endpoint_unit = "%"
observed_measurement = -9

[[record]]
compound = "C[C@@H](NC(=O)OC[C@H]1O[C@@H](n2cnc3c(N)ncnc32)[C@H](O)[C@@H]1O)c1ccc(Cl)cc1 [Compound C4]"
endpoint_unit = "%"
observed_measurement = 20

[[record]]
compound = "Nc1ncnc2c1ncn2[C@@H]1O[C@H](COC(=O)N[C@@H]2CCN(Cc3ccccc3)C2)[C@@H](O)[C@H]1O [Compound C10]"
endpoint_unit = "%"
observed_measurement = 7

[[record]]
compound = "CC(C)N1CCC(NC(=O)OC[C@H]2O[C@@H](n3cnc4c(N)ncnc43)[C@H](O)[C@@H]2O)CC1 [Compound C19]"
endpoint_unit = "%"
observed_measurement = -1

[[record]]
compound = "CN1CCN(CCNC(=O)OC[C@H]2O[C@@H](n3cnc4c(N)ncnc43)[C@H](O)[C@@H]2O)CC1 [Compound C46]"
endpoint_unit = "%"
observed_measurement = 6

[[record]]
compound = "Nc1ncnc2c1ncn2[C@@H]1O[C@H](COC(=O)N2CCN(Cc3ccccc3)CC2CO)[C@@H](O)[C@H]1O (stereo partly drawn) [Compound C13]"
endpoint_unit = "%"
observed_measurement = 18

[[record]]
compound = "Nc1ncnc2c1ncn2[C@@H]1O[C@H](COC(=O)N2CCN(C(=O)N3CCOCC3)CC2)[C@@H](O)[C@H]1O [Compound C89]"
endpoint_unit = "%"
observed_measurement = -16


====

Molecular target: KDR (VEGFR2) (Homo sapiens)
Sequence (P35968 20-1356, species assumed): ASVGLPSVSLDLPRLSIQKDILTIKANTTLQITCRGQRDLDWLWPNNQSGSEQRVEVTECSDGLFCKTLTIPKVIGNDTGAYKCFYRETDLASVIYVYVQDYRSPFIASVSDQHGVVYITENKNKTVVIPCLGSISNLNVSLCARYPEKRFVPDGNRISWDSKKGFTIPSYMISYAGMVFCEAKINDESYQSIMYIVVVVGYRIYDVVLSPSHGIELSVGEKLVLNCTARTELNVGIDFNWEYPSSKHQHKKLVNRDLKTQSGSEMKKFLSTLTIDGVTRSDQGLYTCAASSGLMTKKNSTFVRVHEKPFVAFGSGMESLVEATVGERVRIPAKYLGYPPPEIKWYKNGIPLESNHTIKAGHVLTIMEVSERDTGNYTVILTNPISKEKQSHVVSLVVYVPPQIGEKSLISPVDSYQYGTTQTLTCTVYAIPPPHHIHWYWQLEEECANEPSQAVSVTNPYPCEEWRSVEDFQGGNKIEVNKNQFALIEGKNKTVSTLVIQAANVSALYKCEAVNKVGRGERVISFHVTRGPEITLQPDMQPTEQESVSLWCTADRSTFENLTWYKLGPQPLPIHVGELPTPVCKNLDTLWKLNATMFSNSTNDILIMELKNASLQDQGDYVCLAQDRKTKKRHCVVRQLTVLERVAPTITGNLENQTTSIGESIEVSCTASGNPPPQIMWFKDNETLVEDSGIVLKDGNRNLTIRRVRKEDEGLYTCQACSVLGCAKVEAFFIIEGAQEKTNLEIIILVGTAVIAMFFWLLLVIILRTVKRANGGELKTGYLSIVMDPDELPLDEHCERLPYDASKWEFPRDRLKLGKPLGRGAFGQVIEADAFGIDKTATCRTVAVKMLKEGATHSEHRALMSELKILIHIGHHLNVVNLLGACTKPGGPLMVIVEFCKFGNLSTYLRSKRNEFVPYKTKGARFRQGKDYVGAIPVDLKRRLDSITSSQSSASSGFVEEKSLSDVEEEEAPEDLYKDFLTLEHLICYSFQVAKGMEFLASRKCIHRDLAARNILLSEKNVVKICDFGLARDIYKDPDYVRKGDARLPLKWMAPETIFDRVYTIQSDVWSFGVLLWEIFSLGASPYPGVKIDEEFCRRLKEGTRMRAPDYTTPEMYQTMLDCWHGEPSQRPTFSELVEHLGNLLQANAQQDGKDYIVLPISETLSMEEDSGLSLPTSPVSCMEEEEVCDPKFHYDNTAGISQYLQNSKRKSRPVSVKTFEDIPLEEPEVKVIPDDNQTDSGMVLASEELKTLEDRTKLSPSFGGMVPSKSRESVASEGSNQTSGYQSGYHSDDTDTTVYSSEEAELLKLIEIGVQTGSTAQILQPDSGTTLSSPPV
Test: FRET-based coupled-enzyme protein kinase inhibition assay
Assay type: biochemical
Conditions: compound at 10 µM, 1% DMSO
Protocol: A biochemical assay was then performed in order to measure the protein kinase inhibition. It employed a fluorescence-based coupled-enzyme format and was based on the differential sensitivity of phosphorylated and non-phosphorylated peptides to proteolytic cleavage. […] A significant benefit of this ratiometric method for quantitating reaction progress is the elimination of well-to-well variations in FRET-peptide concentration and signal intensities. […]
reported_endpoint: inhibition at 10 µM (%)

[[record]]
molecule = "Nc1ncnc2c1ncn2[C@@H]1O[C@H](COC(=O)N2CCN(CCc3ccccc3)CC2)[C@@H](O)[C@H]1O"
reported_endpoint = "inhibition at 10 µM"
observed_measurement = -3

[[record]]
molecule = "Nc1ncnc2c1ncn2[C@@H]1O[C@H](COC(=O)N2CCS(=O)(=O)CC2)[C@@H](O)[C@H]1O"
reported_endpoint = "inhibition at 10 µM"
observed_measurement = -3

[[record]]
molecule = "Nc1ncnc2c1ncn2[C@@H]1O[C@H](COC(=O)NC[C@H](O)CO)[C@@H](O)[C@H]1O"
reported_endpoint = "inhibition at 10 µM"
observed_measurement = 0

[[record]]
molecule = "Nc1ncnc2c1ncn2[C@@H]1O[C@H](COC(=O)NCCCc2nc3ccccc3[nH]2)[C@@H](O)[C@H]1O"
reported_endpoint = "inhibition at 10 µM"
observed_measurement = -6

[[record]]
molecule = "C[C@@H](NC(=O)OC[C@H]1O[C@@H](n2cnc3c(N)ncnc32)[C@H](O)[C@@H]1O)c1ccc(Cl)cc1"
reported_endpoint = "inhibition at 10 µM"
observed_measurement = 4

[[record]]
molecule = "CS(=O)(=O)N1CC2(CCN(C(=O)OC[C@H]3O[C@@H](n4cnc5c(N)ncnc54)[C@H](O)[C@@H]3O)CC2)c2ccccc21"
reported_endpoint = "inhibition at 10 µM"
observed_measurement = 8

[[record]]
molecule = "CN(C)CCNC(=O)OC[C@H]1O[C@@H](n2cnc3c(N)ncnc32)[C@H](O)[C@@H]1O"
reported_endpoint = "inhibition at 10 µM"
observed_measurement = 2

[[record]]
molecule = "Nc1ncnc2c1ncn2[C@@H]1O[C@H](COC(=O)N[C@@H]2CCN(Cc3ccccc3)C2)[C@@H](O)[C@H]1O"
reported_endpoint = "inhibition at 10 µM"
observed_measurement = 8

[[record]]
molecule = "N#CCCN1CCN(C(=O)OC[C@H]2O[C@@H](n3cnc4c(N)ncnc43)[C@H](O)[C@@H]2O)CC1"
reported_endpoint = "inhibition at 10 µM"
observed_measurement = -12

[[record]]
molecule = "Nc1ncnc2c1ncn2[C@@H]1O[C@H](COC(=O)N2CCC(Cc3ccc(F)cc3)C2)[C@@H](O)[C@H]1O (stereo partly shown)"
reported_endpoint = "inhibition at 10 µM"
observed_measurement = 3

[[record]]
molecule = "Nc1ncnc2c1ncn2[C@@H]1O[C@H](COC(=O)NCCN2CCCC2=O)[C@@H](O)[C@H]1O"
reported_endpoint = "inhibition at 10 µM"
observed_measurement = -7

[[record]]
molecule = "Nc1ncnc2c1ncn2[C@@H]1O[C@H](COC(=O)N2CCC[C@H]2CO)[C@@H](O)[C@H]1O"
reported_endpoint = "inhibition at 10 µM"
observed_measurement = -3

[[record]]
molecule = "CC(C)N1CCC(NC(=O)OC[C@H]2O[C@@H](n3cnc4c(N)ncnc43)[C@H](O)[C@@H]2O)CC1"
reported_endpoint = "inhibition at 10 µM"
observed_measurement = -10

[[record]]
molecule = "CN1CCN(CCNC(=O)OC[C@H]2O[C@@H](n3cnc4c(N)ncnc43)[C@H](O)[C@@H]2O)CC1"
reported_endpoint = "inhibition at 10 µM"
observed_measurement = -7

[[record]]
molecule = "Nc1ncnc2c1ncn2[C@@H]1O[C@H](COC(=O)N2CCN(C(=O)N3CCOCC3)CC2)[C@@H](O)[C@H]1O"
reported_endpoint = "inhibition at 10 µM"
observed_measurement = -6

[[record]]
molecule = "Nc1ncnc2c1ncn2[C@@H]1O[C@H](COC(=O)N2CCN(Cc3ccccc3)CC2CO)[C@@H](O)[C@H]1O (stereo partly shown)"
reported_endpoint = "inhibition at 10 µM"
observed_measurement = -3

